target-of-assay: T1, 4H710-AA
T1 chain: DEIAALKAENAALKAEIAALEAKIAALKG
method: two-hybrid library CCmax;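 note: natural log of median RNA to DNA barcode read ratio; higher means stronger binding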
test-conditions: mean of both orientations
measurement-type: interaction score

Some binders with known interaction score results, for comparison:
The binder listed as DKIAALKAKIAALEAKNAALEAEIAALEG [4H2865-AA] shows interaction score equal to -0.988

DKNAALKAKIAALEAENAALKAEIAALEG [4H3865-AA] yielded interaction score of -1.84

So, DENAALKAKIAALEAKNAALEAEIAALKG [4H1842-AA] ? Its interaction score was -1.63

The reported interaction score of the binder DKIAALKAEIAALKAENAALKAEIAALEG [4H2649-AA] was -1.42

P: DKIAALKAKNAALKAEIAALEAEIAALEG [4H3009-AA]
Q: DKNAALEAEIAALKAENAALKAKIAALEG [4H3165-AA]
R: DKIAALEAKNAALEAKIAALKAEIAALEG [4H2473-AA]
S: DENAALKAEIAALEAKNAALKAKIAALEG [4H1597-AA]
Prompt line: Parameters: sort_field (interaction score), sort_dir (desc). Please list the labels in the order you were asked to rank them.
Response line: P, R, Q, S
(P: 1.94, R: 0.747, Q: -1.07, S: -1.99)

I: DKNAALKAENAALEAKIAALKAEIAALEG [4H3753-AA]
II: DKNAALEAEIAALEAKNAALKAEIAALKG [4H3130-AA]
Prompt line: Between item I and item II , which reported interaction score is smaller? Your answer should be the label of the entry you select.
Response line: II

P: DEIAALEAKNAALKAKIAALEAKIAALEG [4H485-AA]
Q: DEIAALKAEIAALEAENAALEAKNAALKG [4H536-AA]
Prompt line: Kindly identify the item with the lower interaction score figure among these two: P and Q Indicate your choice by writing its label.
Response line: Q
